target: Progesterone receptor (Homo sapiens, UniProt P06401); experiment: Inhibition of 4 nM progesterone-stimulated transactivation of MMTV-Luc reporter in CV-1 cells expressing PR-B; assay type: functional, cell-based
Sequence (P06401 whole entry): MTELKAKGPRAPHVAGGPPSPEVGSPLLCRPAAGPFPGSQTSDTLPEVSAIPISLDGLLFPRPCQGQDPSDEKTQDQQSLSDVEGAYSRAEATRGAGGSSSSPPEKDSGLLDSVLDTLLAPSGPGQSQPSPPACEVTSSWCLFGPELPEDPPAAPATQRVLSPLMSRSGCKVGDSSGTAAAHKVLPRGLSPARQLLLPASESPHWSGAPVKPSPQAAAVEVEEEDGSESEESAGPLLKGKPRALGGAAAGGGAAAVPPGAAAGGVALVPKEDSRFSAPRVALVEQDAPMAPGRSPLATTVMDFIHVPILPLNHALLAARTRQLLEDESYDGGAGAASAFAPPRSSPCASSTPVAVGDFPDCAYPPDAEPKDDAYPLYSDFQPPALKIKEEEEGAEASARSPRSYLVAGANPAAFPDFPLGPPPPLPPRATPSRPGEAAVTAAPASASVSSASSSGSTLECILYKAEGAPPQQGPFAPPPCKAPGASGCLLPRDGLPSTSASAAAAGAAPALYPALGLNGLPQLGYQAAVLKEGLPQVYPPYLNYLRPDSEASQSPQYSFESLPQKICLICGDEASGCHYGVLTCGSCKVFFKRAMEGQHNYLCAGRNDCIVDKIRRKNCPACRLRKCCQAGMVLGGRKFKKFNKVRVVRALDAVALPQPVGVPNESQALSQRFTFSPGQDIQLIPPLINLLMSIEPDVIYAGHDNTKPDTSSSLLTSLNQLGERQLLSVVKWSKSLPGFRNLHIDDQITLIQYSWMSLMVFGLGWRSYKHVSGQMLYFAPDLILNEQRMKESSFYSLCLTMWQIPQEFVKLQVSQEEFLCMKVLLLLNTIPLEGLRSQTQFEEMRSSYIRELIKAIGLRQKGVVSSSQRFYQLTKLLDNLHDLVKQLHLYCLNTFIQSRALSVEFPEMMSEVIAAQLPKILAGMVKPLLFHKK
READOUT LABEL: Log IC50

Sample answers from the record:
{"MOLECULE": "CN(C)c1ccc(C2CN(S(=O)(=O)c3ccc(Cl)cc3)N=C2c2ccc(Cl)c(Cl)c2)cc1 (configuration not stated)", "READOUT LABEL": "Log IC50", "RESULT VALUE": -6.1}
{"MOLECULE": "CN(C)c1ccc([C@@H]2CN(S(=O)(=O)c3ccc(Cl)cc3)N=C2c2ccc(Cl)c(Cl)c2)cc1", "READOUT LABEL": "Log IC50", "RESULT VALUE": -5.8}
{"MOLECULE": "CC1CC(c2ccc(Cl)c(Cl)c2)=NN1S(=O)(=O)c1ccc(Cl)cc1 (configuration not stated)", "READOUT LABEL": "Log IC50", "RESULT VALUE": -6.7}

(I) C[C@@H]1CN(S(=O)(=O)c2ccc(Cl)cc2)N=C1c1ccc(Cl)c(Cl)c1
(II) C[C@H]1CN(S(=O)(=O)c2ccc(Cl)cc2)N=C1c1ccc(Cl)c(Cl)c1
Q: Kindly identify the item with the lower Log IC50 figure among these two: I and II Selection: enter the item's label.
Ans: II

* * *

target: Progesterone receptor (Homo sapiens, UniProt P06401)
pKi: −log10 of the molar value.
READOUT LABEL: pKi

{"COMPOUND": "CC1CC(c2ccc(Cl)c(Cl)c2)=NN1S(=O)(=O)c1ccc(Cl)cc1 (stereo not given)", "TARGET SYSTEM": "Progesterone receptor (Homo sapiens, UniProt P06401)", "pKi": 7.40}

(1) CC1CN(S(=O)(=O)c2ccc(Cl)cc2)N=C1c1ccc(Cl)c(Cl)c1 (stereo not given)
(2) O=S(=O)(c1ccc(Cl)cc1)N1CC(c2ccccc2)C(c2ccc(Cl)c(Cl)c2)=N1 (stereo not given)
(3) C[C@@H]1CN(S(=O)(=O)c2ccc(Cl)cc2)N=C1c1ccc(Cl)c(Cl)c1
Q: Reorder the items by pKi, least to greatest. Give me the labels in the order the question wants.
Ans: 3, 2, 1
